# credit: patent US9433588B2

# PROCEDURE DETAILS: Hygroscopic properties of drugs and excipients (saturation limits, i coefficients, hygroscopic parameter)
# Type: physicochemical
ENDPOINT NAME: Hygroscopic parameter isρs/Ms (kmol/m^3)
Enter your answer as a number in kmol/m^3; do not include the unit.

Worked set:
Q: Given OC[C@@H](O)[C@@H](O)[C@H](O)[C@H](O)CO , respond with its Hygroscopic parameter isρs/Ms.
A: 8.2

Q: Given CC(O)CO (stereo not shown) , respond with its Hygroscopic parameter isρs/Ms.
A: 13.6

Continuing:
Q: Given [Cl-].[Na+] [Sodium chloride (NaCl), Sodium chloride] , respond with its Hygroscopic parameter isρs/Ms.
A: 77.9

Q: Given O=C(O)CC(O)(CC(=O)O)C(=O)O , respond with its Hygroscopic parameter isρs/Ms.
A: 16.5
